experiment: Antioxidant activity assessed as ABTS free radical scavenging activity after 1 min by spectrophotometry
condition summary: ABTS free radical
pIC50: −log10 of the molar value.

compound: Cc1cccc2cc(-c3ccc(O)cc3)oc12
pIC50: 4.27
--
compound: Cc1c(C)c2c(c(C)c1O)CCC(C)(C(=O)O)O2 (stereo not drawn)
pIC50: 4.89
--
compound: Oc1ccc(-c2cc3cccc(Br)c3o2)cc1
pIC50: 4.03

---

target system: Cholinesterase (Equus caballus, UniProt P81908)
Sequence (P81908 whole entry): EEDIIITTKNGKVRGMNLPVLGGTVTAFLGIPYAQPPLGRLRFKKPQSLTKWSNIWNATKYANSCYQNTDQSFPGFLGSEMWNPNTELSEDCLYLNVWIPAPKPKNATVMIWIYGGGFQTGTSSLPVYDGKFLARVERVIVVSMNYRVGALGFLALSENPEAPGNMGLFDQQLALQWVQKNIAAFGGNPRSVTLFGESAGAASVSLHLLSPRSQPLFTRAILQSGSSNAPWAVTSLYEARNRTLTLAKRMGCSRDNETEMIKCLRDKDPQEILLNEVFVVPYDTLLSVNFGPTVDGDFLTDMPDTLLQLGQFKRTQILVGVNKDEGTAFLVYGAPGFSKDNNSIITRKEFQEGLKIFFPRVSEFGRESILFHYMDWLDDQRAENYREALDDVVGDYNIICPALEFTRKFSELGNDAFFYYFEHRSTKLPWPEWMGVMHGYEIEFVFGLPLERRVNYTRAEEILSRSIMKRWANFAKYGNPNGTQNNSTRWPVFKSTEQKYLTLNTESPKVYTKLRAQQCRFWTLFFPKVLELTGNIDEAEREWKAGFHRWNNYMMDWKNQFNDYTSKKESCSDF
experiment: Mixed-type inhibition of equine BChE using S-butyrylthiocholine chloride as substrate assessed as enzyme-substrate complex by Lineweaver-Burk reciprocal plot method
pKi: −log10 of the molar value.
measure: pKi

item smiles: Oc1ccc(-c2cc3cccc(Cl)c3o2)cc1
measured result: 4.06

---

target system: Cholinesterase (Equus caballus)
experiment: Inhibition of equine BChE at 100 uM using S-butyrylthiocholine chloride as substrate by Ellman's method
Calls of active or inactive are those of the source. The rule behind the calls is not given here.
measure: inhibition

item smiles: Oc1ccc(-c2cc3cc(Cl)ccc3o2)cc1
measure: inhibition
measured result: 15%
--
item smiles: Oc1ccc(-c2cc3cccc(Br)c3o2)cc1
measure: inhibition
measured result: 54%
--
item smiles: COc1ccc(-c2cc3cccc(Cl)c3o2)cc1
measure: inhibition
measured result: 5%
--
item smiles: Cc1cccc2cc(-c3ccc(O)cc3)oc12
measure: inhibition
measured result: 58%
--
item smiles: Brc1cccc2cc(-c3ccccc3)oc12
measure: inhibition
measured result: 12%
--
item smiles: c1ccc(-c2cc3ccccc3o2)cc1
measure: inhibition
measured result: 6%
--
item smiles: Oc1ccc(-c2cc3cc(Br)ccc3o2)cc1
measure: inhibition
measured result: 16.6%
--
item smiles: Cc1ccc2oc(-c3ccc(O)cc3)cc2c1
measure: inhibition
measured result: 19%
--
item smiles: Oc1ccc(-c2cc3cccc(Cl)c3o2)cc1
measure: inhibition
measured result: 77%
--
item smiles: COc1ccc(-c2cc3ccccc3o2)cc1
measure: inhibition
measured result: inactive
--
item smiles: Oc1ccc(-c2cc3ccccc3o2)cc1
measure: inhibition
measured result: inactive

---

experiment: Antioxidant activity assessed as ABTS free radical scavenging activity at 100 uM after 1 min by spectrophotometry
Below is a list of entries, each paired with its recorded INH value.
measure: INH (%)

item smiles: Oc1ccc(-c2cc3cc(Cl)ccc3o2)cc1
measured result: 15
//
item smiles: Cc1cccc2cc(-c3ccc(O)cc3)oc12
measured result: 72
//
item smiles: Oc1ccc(-c2cc3cc(Br)ccc3o2)cc1
measured result: 15
//
item smiles: Oc1ccc(-c2cc3cccc(Br)c3o2)cc1
measured result: 53
//
item smiles: Oc1ccc(-c2cc3cccc(Cl)c3o2)cc1
measured result: 62.4
//
item smiles: Oc1ccc(-c2cc3ccccc3o2)cc1
measured result: 24
//
item smiles: Cc1ccc2oc(-c3ccc(O)cc3)cc2c1
measured result: 31
